- test_target: catalytic domain of human PARP14 (Homo sapiens (Human), UniProt Q460N5)
- Sequence (Q460N5 1611-1801): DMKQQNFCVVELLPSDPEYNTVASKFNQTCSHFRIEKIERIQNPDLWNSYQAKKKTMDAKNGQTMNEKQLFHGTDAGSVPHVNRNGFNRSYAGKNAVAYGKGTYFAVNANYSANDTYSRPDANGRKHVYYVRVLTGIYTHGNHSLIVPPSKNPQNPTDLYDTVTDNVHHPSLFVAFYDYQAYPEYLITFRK
- test_details: Enzymatic assay for inhibition of PARP14 (DELFIA, auto-modification with biotin-NAD)
- Type: biochemical
- condition_description: auto-modification of PARP14 by biotin-NAD, 50 nM PARP14, 3 μM biotin-NAD
Where a name gives a salt, the structure may show the parent alone.
readout_kind: IC50

> print(dat)
                                   molecule  result
1  O=c1[nH]c(CS[C@H]2CC[C@H](O)CC2)nc2cc(OCC3CCOCC3)cc(F)c12  < 1 µM
2  O=c1[nH]c(CS[C@H]2CC[C@H](O)CC2)nc2cc(Nc3cccnc3)ccc12  < 1 µM
3  O=c1[nH]c(CSC2CCNCC2)nc2cc(NC3CCCC3)cc(F)c12 [Example 176, Hydrochloride]  < 1 µM

Field: next molecule
Lookup: Param request: IC50 | system catalytic domain of human PARP14 (Homo sapiens (Human), UniProt Q460N5) | item Cc1cc(NC2CCCC2)cc2nc(CSC3CCOCC3)[nH]c(=O)c12
Found: < 1 µM
